Values from patent US10807970B2

- Subject Of Test: human σ1 receptor (Homo sapiens, UniProt Q99720)
- Sequence (Q99720 whole entry): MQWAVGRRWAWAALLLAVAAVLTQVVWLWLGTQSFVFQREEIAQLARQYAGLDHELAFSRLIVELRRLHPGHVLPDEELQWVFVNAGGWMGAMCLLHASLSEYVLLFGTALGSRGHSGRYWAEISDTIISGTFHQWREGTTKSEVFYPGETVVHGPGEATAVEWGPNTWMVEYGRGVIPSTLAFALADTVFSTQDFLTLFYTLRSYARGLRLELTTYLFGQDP
- Protocol Description: Human σ1 receptor radioligand assay ([3H](+)-pentazocine, transfected HEK-293 membranes)
- Assay type: binding
- Condition Parameters: μ and σ1 dual binding, one class symbol for both Ki-σ1 (human σ1 receptor, A1) and Ki-μ (human μ-opioid receptor, A2)
Readout Kind: Ki

Entry under review: CC1(C)CC(c2ccccn2)(C2CCN(Cc3ccccc3)CC2)CCO1 (stereo not drawn) . Reported Ki? > 500 nM

And CC(C)OCCN1CCN(C2(C(=O)c3cccc(C(F)(F)F)n3)CCOC(C)(C)C2)CC1 (stereo not drawn) ? < 500 nM

Next compound, please.
Requested read-out: Ki. Entry: CC(C)CN1CCN(C2(c3ccccc3)CCOC3(CCCC3)C2)CC1 (stereo not drawn) < 500 nM

---

For each entry below, report its pKi value.
- Subject Of Test: human σ1 receptor (Homo sapiens, UniProt Q99720)
- Protocol Description: Human σ1 receptor radioligand assay ([3H](+)-pentazocine, transfected HEK-293 membranes)
- Type: binding
- Condition Parameters: one class symbol for both Ki-σ1 (human σ1 receptor, A1) and Ki-μ (human μ-opioid receptor, A2); read-out: μ and σ1 dual binding
pKi: −log10 of the molar value.

For orientation, consider the following solved cases.
Returns the measured pKi for the input molecule. Input: `O=C(c1ccccn1)C1(N2CCN(Cc3ccc(F)c(F)c3)CC2)CCOCC1` < 6.30

And what about the molecule `CC(C)CCN1CCN([C@]2(C(=O)c3ccccn3)CCO[C@H](C)C2)CC1` ? > 6.30

What do we get for CC1(C)CC(C(=O)c2ccccn2)(N2CCN(Cc3ccncc3)CC2)CCO1 (centres unmarked) ? < 6.30

Then what about the molecule CC(C)OCCN1CCC(C2(C(=O)c3ccccn3)CCOC(C)(C)C2)CC1 (centres unmarked) ? > 6.30

Next: CC[C@]1(N2CCN(Cc3ccc(C#N)cc3)CC2)CCO[C@@H](C)C1 (stereo in doubt) < 6.30

What about this molecule? `COc1ccc(CN2CCN(C3(C(=O)c4ccccn4)CCOCC3)CC2)cc1F` < 6.30

Also check CC(C)OCCN1CCN([C@]2(C(=O)c3ccccn3)CCOC(C)(C)C2)CC1 [Example 135] > 6.30

How about this molecule: `C[C@H]1C[C@](C(=O)c2ccccn2)(N2CCN(Cc3ccccc3)CC2)CCO1` > 6.30

Same for C=CC1(N2CCN(CCc3ccccc3)CC2)CCOC(C)(C)C1 (centres unmarked) < 6.30

Consider next the molecule `C[C@@H]1C[C@@](C(=O)c2ccccn2)(N2CCN(CCc3ccccc3)CC2)CCO1` in the same way. > 6.30

Dear colleague, could you send me pKi for each of the items below? Thanks.
1. C[C@H]1C[C@@](C(=O)c2ccccn2)(N2CCN(CCc3ccccc3)CC2)CCO1
2. CCOCCN1CCN(C2(C(=O)c3ccccn3)CCOC(C)(C)C2)CC1 (centres unmarked)
3. CC1(C)CC(C(=O)c2ccccn2)(N2CCN(CCc3ccncc3)CC2)CCO1 (centres unmarked)
4. COc1ccc(CN2CCN(C3(C(=O)c4ccccn4)CCOCC3)CC2)cc1
5. CC1(C2CCN(Cc3ccccc3)CC2)CCOCC1
6. N#Cc1cccc(CN2CCN(C3(C(=O)c4ccccn4)CCOCC3)CC2)c1

1. > 6.30
2. < 6.30
3. < 6.30
4. < 6.30
5. < 6.30
6. < 6.30

Each molecule below has a reported value. Please supply its pKi.
1. CC1(C)CC(CCO)(N2CCN(CCc3ccccc3)CC2)CCO1 (centres unmarked)
2. N#Cc1cc(CN2CCN(C3(C(=O)c4ccccn4)CCOCC3)CC2)ccc1F
3. CC(C)OCCN1CCN([C@]2(C(=O)c3ccccn3)CCO[C@H](C)C2)CC1

< 6.30
< 6.30
< 6.30

Go through the items and report each one's pKi.
1. CCC1(N2CCN(CCc3ccccc3)CC2)CCOC(C)(C)C1 (centres unmarked)
2. C[C@@H]1C[C@@](C(=O)c2ccccn2)(N2CCN(Cc3ccccc3)CC2)CCO1

1. > 6.30
2. < 6.30

Please state pKi for every molecule in the list that follows.
1. CC(C)OCCN(C)[C@@H]1CCN([C@]2(C(=O)c3ccccn3)CCOC(C)(C)C2)C1
2. N#Cc1ccc(CN2CCN(C3(C4CC4)CCOCC3)CC2)cc1
3. CC(C)OCCN1CCN(C2(C(=O)c3ccccn3)CCOC(C)(C)C2)CC1 (centres unmarked)
4. O=C(c1ccccn1)C1(N2CCN(Cc3ccc(OC(F)(F)F)cc3)CC2)CCOCC1
5. CC1(C)CC(C(=O)c2ccccn2)(N2CCN(CCC(F)(F)F)CC2)CCO1 (centres unmarked)

1: > 6.30; 2: < 6.30; 3: > 6.30; 4: < 6.30; 5: < 6.30
